Experiment: Acute toxicity in ip dosed ddY mouse measured after 168 hrs
Type: organism-based
Details: in vivo
Entries and their LD50 at 168 h
Measured Attribute: LD50 at 168 h

[[record]]
smi = "COc1cc(CC(N)=O)cc(-c2ccc(Cl)cc2)c1"
measured_attribute = "LD50 at 168 h"
result = "> 1600 mg/kg"

[[record]]
smi = "CCOC(=O)Cc1cc(OC)cc(-c2ccc(Cl)cc2)c1"
measured_attribute = "LD50 at 168 h"
result = "1130 mg/kg"

[[record]]
smi = "CCOc1cc(CC(=O)O)cc(-c2ccc(Cl)cc2)c1"
measured_attribute = "LD50 at 168 h"
result = "284 mg/kg"

[[record]]
smi = "COc1cc(CC(=O)NO)cc(-c2ccc(Cl)cc2)c1"
measured_attribute = "LD50 at 168 h"
result = "> 1600 mg/kg"

[[record]]
smi = "COc1cc(CC(=O)O)cc(-c2ccccc2Cl)c1"
measured_attribute = "LD50 at 168 h"
result = "252 mg/kg"

[[record]]
smi = "CCCCOc1cc(CC(=O)O)cc(-c2ccc(Cl)cc2)c1"
measured_attribute = "LD50 at 168 h"
result = "237 mg/kg"

[[record]]
smi = "COC(=O)Cc1cc(O)cc(-c2ccc(Cl)cc2)c1"
measured_attribute = "LD50 at 168 h"
result = "> 1600 mg/kg"

[[record]]
smi = "CCCCOc1cc(CC(=O)O)cc(-c2ccccc2)c1"
measured_attribute = "LD50 at 168 h"
result = "> 1600 mg/kg"

[[record]]
smi = "COC(=O)Cc1cc(OC(C)=O)cc(-c2ccc(Cl)cc2)c1"
measured_attribute = "LD50 at 168 h"
result = "> 1600 mg/kg"

[[record]]
smi = "CCCOc1cc(CC(=O)O)cc(-c2ccc(Cl)cc2)c1"
measured_attribute = "LD50 at 168 h"
result = "400 mg/kg"

[[record]]
smi = "CCOc1cc(CC(=O)O)cc(-c2ccccc2)c1"
measured_attribute = "LD50 at 168 h"
result = "400 mg/kg"

